Tested on: M. smegmatis
PROTOCOL DETAILS: microbe, parasite or virus in culture
Assay type: cell-based, Mycobacterium smegmatis (mc2155, ATCC 700084)
APPLIED CONDITIONS: Mycolicibacterium smegmatis, 72 h, read-out: Minimal Inhibitory Concentration (MIC) M. smegmatis
PROPERTY LABEL: MIC (µM)

COMPOUND	PROPERTY LABEL	DISPLAY UNIT	RELATION OPERATOR	REPORTED
COc1ccc(Cc2c3[n+](cc4c(OC)c(OC)ccc24)CCc2cc4c(cc2-3)OCO4)c(OC)c1OC	MIC	µM	=	25
COc1ccc2c(c1OC)CN1CCc3cc4c(cc3C1=C2)OCO4 [Compound 1, Dihydroberberine]	MIC	µM	>	100
COc1ccc2c(O)c3[n+](cc2c1OC)CCc1cc2c(cc1-3)OCO2 [Compound 2, 13-hydroxyberberine]	MIC	µM	=	25
COc1ccc2cc3[n+](cc2c1OC)CCc1cc2c(cc1-3)OCO2	MIC	µM	=	100
COc1ccc2c(Cc3ccc(/C=C/C(=O)O)cc3)c3[n+](cc2c1OC)CCc1cc2c(cc1-3)OCO2	MIC	µM	>	100
COc1ccc2c(Cc3ccc4c(c3)OCO4)c3[n+](cc2c1OC)CCc1cc2c(cc1-3)OCO2	MIC	µM	=	12.5
CCOC(=O)Cc1c2[n+](cc3c(OC)c(OC)ccc13)CCc1cc3c(cc1-2)OCO3	MIC	µM	=	100
C=Cc1ccc(Cc2c3[n+](cc4c(OC)c(OC)ccc24)CCc2cc4c(cc2-3)OCO4)cc1	MIC	µM	=	6.25
COc1ccc2c(CC(=O)O)c3[n+](cc2c1OC)CCc1cc2c(cc1-3)OCO2	MIC	µM	=	50
CO/N=C1\CN(c2nc3c(cc2F)c(=O)c(C(=O)O)cn3C2CC2)CC1CN (centres unmarked) [Gemifloxacin, reference compound]	MIC	µM	=	2
COc1ccc2c(Cc3ccc(F)cc3)c3[n+](cc2c1OC)CCc1cc2c(cc1-3)OCO2	MIC	µM	=	25
COc1ccc2c(Cc3ccc(CI)cc3)c3[n+](cc2c1OC)CCc1cc2c(cc1-3)OCO2	MIC	µM	=	25
COc1cc(Cc2c3[n+](cc4c(OC)c(OC)ccc24)CCc2cc4c(cc2-3)OCO4)cc(OC)c1OC	MIC	µM	=	50
COc1ccc2c(=O)cc(-c3ccc(Cc4c5[n+](cc6c(OC)c(OC)ccc46)CCc4cc6c(cc4-5)OCO6)cc3)oc2c1	MIC	µM	=	50
